tested on: RXF 393; test: NCI tumour cell line growth inhibition, 48 h
Calls of active or inactive are those of the source. Rule as the data show it: active = GI50 up to about 1.1 µM and inactive = higher. Where a SMILES comes first, the peptide text is derived from it. [ ]: non-standard residue; d: D form. Hiv = CC(C)[C@H](O)C(=O)O
measured.property: GI50

# example entries with known answers
CN(C)c1ccc2c(c1)oc(=O)c1ccccc12
5.4 µM (inactive)
CC(C)(C)c1cc(Br)c(O)c(CN(Cc2cc(C(C)(C)C)cc(Br)c2O)C2CCCCC2)c1
10.7 µM (inactive)
COc1c(C(=O)c2ccc([N+](=O)[O-])cc2)cc(C(C)(C)C)cc1C(C)(C)C
17.1 µM (inactive)
CCc1nc2ccccc2c(=O)n1/N=C(\N=N\c1ccc(Cl)cc1)c1ccccc1Cl
21.1 µM (inactive)
C=C1C2=C(CCCC2)C(=O)OC12CCCCC2
56.5 µM (inactive)
CC(C)[C@@H]1OC(=O)[C@@H](C)NC(=O)[C@@H]2CCCN2C1=O (cyclo([Hiv]-Pro-[dA]))
> 100 µM (inactive)
CN(C)c1ccc(-c2cc(O)c3cc4c(cc3n2)OCO4)cc1
> 100 µM (inactive)
O=[N+]([O-])c1cccc(S(=O)(=O)N/N=C/c2cc(I)cc([N+](=O)[O-])c2O)c1
26.4 µM (inactive)
CC(C)(C)OC(=O)NCCCCC(N)C(N)=O (configuration not stated)
> 100 µM (inactive)
N#CCC(=O)N1CCCCCCC1
> 100 µM (inactive)

Q: What value of GI50 has been reported for the following compound? "O=C(N/N=C/c1ccccc1)c1c(-c2cccnc2)cnc2ccccc12"
Result: > 100 µM (inactive)

Q: "CC(C)(C)[Si](C)(C)O/N=C\c1ccc(O[Si](C)(C)C(C)(C)C)cc1" ?
Result: 24.5 µM (inactive)

Q: COc1ccccc1NC(=O)C(=O)C(C(=O)c1ccccc1F)C1OC(=O)c2ccccc21 (configuration not stated) ?
Result: 42.9 µM (inactive)

Q: "C[N+](C)(CCCn1ccnc1[N+](=O)[O-])CCCn1ccnc1[N+](=O)[O-]" ?
Result: > 100 µM (inactive)

Q: "C[n+]1cccc2ccc(OC(=O)c3ccccc3)cc21" ?
Result: > 100 µM (inactive)

Q: "O=C(O)c1ccc([I+]c2ccccc2)cc1" ?
Result: > 100 µM (inactive)

Q: "O=C(NC12CC3CC(CC(F)(C3)C1)C2)c1ccccc1" ?
Result: > 100 µM (inactive)
